Origin of the recorded values: ChEMBL document CHEMBL1144169

Tested on: K562
Assay Explanation: Cytotoxicity against human K-562 cells after 72 hrs by MTT assay
Type: functional, cell-based
Recorded Conditions: K562, 72 h
hey, just use Satisfied if measured IC50 is less than 9 µg/mL, otherwise Not satisfied

Past entries and their recorded results:
Compound	Group
CC(C)[C@@H]1CC[C@]2(C(=O)O)CC[C@]3(C)[C@H](CC[C@@H]4[C@@]5(C)Cc6c([nH]c7ccc(F)cc67)C(C)(C)[C@@H]5CC[C@]43C)[C@@H]12	Not satisfied
C=C(C)[C@@H]1CC[C@]2(C(=O)O)CC[C@]3(C)[C@H](CC[C@@H]4[C@@]5(C)Cc6c([nH]c7c(F)cccc67)C(C)(C)[C@@H]5CC[C@]43C)[C@@H]12	Satisfied
C=C(C)[C@@H]1CC[C@]2(C(=O)O)CC[C@]3(C)[C@H](CC[C@@H]4[C@@]5(C)Cc6c([nH]c7ccc(F)cc67)C(C)(C)[C@@H]5CC[C@]43C)[C@@H]12	Not satisfied
C=C(C)[C@@H]1CC[C@]2(C(=O)O)CC[C@]3(C)[C@H](CC[C@@H]4[C@@]5(C)Cc6c([nH]c7cc(Cl)cc(Cl)c67)C(C)(C)[C@@H]5CC[C@]43C)[C@@H]12	Not satisfied

**Query** Determine if CC(C)[C@@H]1CC[C@]2(C(=O)O)CC[C@]3(C)[C@H](CC[C@@H]4[C@@]5(C)Cc6c(oc7ccccc67)C(C)(C)[C@@H]5CC[C@]43C)[C@@H]12 shows IC50 strictly lower than 9 µg/mL.
**Result** Not satisfied

**Query** Lab note: confirm whether the reported IC50 for this compound is below 9 µg/mL, equality not counting. compound: C=C(C)[C@@H]1CC[C@]2(C(=O)O)CC[C@]3(C)[C@H](CC[C@@H]4[C@@]5(C)Cc6c([nH]c7ccc(Cl)cc67)C(C)(C)[C@@H]5CC[C@]43C)[C@@H]12
**Result** Not satisfied

**Query** Lab note: IC50 threshold 9 µg/mL. Does this compound come in strictly under it? CC(C)[C@@H]1CC[C@]2(C(=O)O)CC[C@]3(C)[C@H](CC[C@@H]4[C@@]5(C)Cc6c([nH]c7ccc(Cl)cc67)C(C)(C)[C@@H]5CC[C@]43C)[C@@H]12
**Result** Not satisfied

**Query** Lab log: compare recorded IC50 with 9 µg/mL; is it strictly lower for C=C(C)[C@@H]1CC[C@]2(C(=O)O)CC[C@]3(C)[C@H](CC[C@@H]4[C@@]5(C)Cc6c([nH]c7ccc(OC)cc67)C(C)(C)[C@@H]5CC[C@]43C)[C@@H]12 ?
**Result** Not satisfied

**Query** Decide: IC50 of C=C(C)[C@@H]1CC[C@]2(C(=O)O)CC[C@]3(C)[C@H](CC[C@@H]4[C@@]5(C)CC[C@H](O)C(C)(C)[C@@H]5CC[C@]43C)[C@@H]12 [BETULINIC ACID] strictly below 9 µg/mL?
**Result** Satisfied
